# Test system: L. donovani-iRFP axenic amastigotes
# PROCEDURE DETAILS: ROS production by axenic amastigotes (DCFH-DA, flow cytometry)
# Assay type: cell-based, Leishmania donovani
# SETUP CONDITIONS: compound at its axenic EC50, 3 h
QUANTITY: Positive ROS (stressed population) (%)
Expressed in %, but write only the number.

Would you please look over these solved cases?
In [3]: df
Out[3]:
                                   compound                   measurement_target                            quantity  measured
0         NC(=O)N/N=C/c1ccc([N+](=O)[O-])o1  L. donovani-iRFP axenic amastigotes  Positive ROS (stressed population)      55.9
1  O=C1NN(c2ccc(F)c(Cl)c2)C(=O)C1=Cc1ccc([N+](=O)[O-])o1  L. donovani-iRFP axenic amastigotes  Positive ROS (stressed population)      63.1
2  CC(=O)OC(OC(C)=O)c1ccc([N+](=O)[O-])o1 [5-nitro-2-furaldehide diacetate, 5-Nitro-2-furaldehyde diacetate]  L. donovani-iRFP axenic amastigotes  Positive ROS (stressed population)      68.9

Ask: If you can, please state the reported Positive ROS (stressed population) value of `N#Cc1ccc([N+](=O)[O-])o1` .
Reply: 61.8

Ask: Also check `O=C1CN(/N=C/c2ccc([N+](=O)[O-])o2)C(=O)N1`
Reply: 76.1

Ask: Same lookup for CC1CS(=O)(=O)CCN1/N=C/c1ccc([N+](=O)[O-])o1 (stereo not shown) , please.
Reply: 68.1

Ask: # repeat for `O=C1OCCN1/N=C/c1ccc([N+](=O)[O-])o1`
Reply: 54.1

* * *

# PROCEDURE DETAILS: Cytotoxicity in bone marrow-differentiated macrophages, alamarBlue, 72 h
# Assay type: cell-based
# SETUP CONDITIONS: mouse, bone marrow-differentiated macrophages (BMDM); 72 h, alamarBlue, uninfected mice; read-out: BMDM CC50
QUANTITY: CC50 at 72 h (µM)
Dear colleague, please return just the value in µM, with no unit written.

Below: 3 molecules and their reported CC50 at 72 h.
>>> print(df.to_string())
                            molecule_smiles  unit_of_measurement  measured
0         NC(=O)N/N=C/c1ccc([N+](=O)[O-])o1                   µM      40.6
1  O=C1CN(/N=C/c2ccc([N+](=O)[O-])o2)C(=O)N1                   µM      56.3
2  O=C1NN(c2ccc(F)c(Cl)c2)C(=O)C1=Cc1ccc([N+](=O)[O-])o1                   µM      20.8

Now turn to the next molecule.
Ask: I would be grateful if you could share the reported CC50 at 72 h for `N#Cc1ccc([N+](=O)[O-])o1` .
Reply: 25.8

* * *

The entries below come with measured CC50 at 72 h values attached.
# PROCEDURE DETAILS: Cytotoxicity, alamarBlue, 72 h
# Assay type: cell-based, murine
# SETUP CONDITIONS: mouse, RAW 264.7 cells; 72 h, alamarBlue; read-out: RAW 264.7 cells CC50
Hi! Could you send only the number? It should be in µM, unit omitted.

A selection of reference data follows.
In [3]: df
Out[3]:
                                   molecule  unit_of_measurement  measured
0  O=C1CN(/N=C/c2ccc([N+](=O)[O-])o2)C(=O)N1 [Nitrofurantoin]                   µM      37.2
1  CC1CS(=O)(=O)CCN1/N=C/c1ccc([N+](=O)[O-])o1 (centres unmarked) [Nifurtimox]                   µM      50.5
2  O=C1NN(c2ccc(F)c(Cl)c2)C(=O)C1=Cc1ccc([N+](=O)[O-])o1 [PYZD-4409]                   µM      51.7
3  NC(=O)N/N=C/c1ccc([N+](=O)[O-])o1 [Nitrofurazone]                   µM      39.6

Ask: Data request, read-out CC50 at 72 h, for N#Cc1ccc([N+](=O)[O-])o1 [5-nitro-2-furonitrile, 5-Nitro-2-furonitrile]
Reply: 31.2
